The reported measurements were obtained from PubChem BioAssay AID1527.

Tested on: VIM-2 metallo-beta-lactamase (Pseudomonas aeruginosa)
Method notes: inhibition of VIM-2 nitrocefin hydrolysis – biochemical, epi-absorbance readout, Pseudomonas aeruginosa enzyme, primary screen (AID 1527);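 also: red hydrolysis product quenches plate fluorescence so inhibitors raise well fluorescence; 0% = enzyme with DMSO and 100% = DMSO without enzyme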
Run parameters: purified VIM-2, nitrocefin hydrolysis, epi-absorbance fluorescence; at 5.6 µM; hits give high values
Screen size: about 290,000 compounds; about 2,600 (0.9%) were called active. For the sample, actives were picked, then their nearest neighbours and some compounds at random.
Is inhibition at least 10%? Then 1. If not, 0.

input: Does inhibition meet or surpass 10% for CN(C)CCSc1nc(N)c2c3c(sc2n1)COC(C)(C)C3 ?
output: 1

input: Another molecule to check: O=C(NCCN1CCOCC1)c1cc(-c2cccs2)nc2ccccc12
output: 0

input: Proceed to Cc1cc(=O)oc2ccc(OCC(=O)O)cc12
output: 0

* * *

Items are presented alongside their recorded inhibition.
Test system: VIM-2 metallo-beta-lactamase (Pseudomonas aeruginosa)
Method notes: inhibition of VIM-2 nitrocefin hydrolysis – biochemical, epi-absorbance readout, Pseudomonas aeruginosa enzyme, primary screen (AID 1527);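 also: red hydrolysis product quenches plate fluorescence so inhibitors raise well fluorescence; 0% = enzyme with DMSO and 100% = DMSO without enzyme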
Run parameters: purified VIM-2, nitrocefin hydrolysis, epi-absorbance fluorescence; at 5.6 µM; hits give high values
About 2,600 (0.9%) of roughly 290,000 compounds were called active. This is one part of a sample in which actives are shown more often than they occur.
// units = %; emit number, no label

Reference set (2 entries):
- Compound: "Cc1cc(C)c2c(n1)nn1c(-n3ccnc3)cc(C)nc21"
  Value unit: "%"
  inhibition: 5.51
- Compound: "Cn1c(C(=O)NCCN2CCc3ccccc3C2)cc2c(=O)[nH]c3ccccc3c21"
  Value unit: "%"
  inhibition: 6.06

input: Request the reported inhibition associated with COc1ccc(NS(=O)(=O)c2cc3c(cc2C)N(C(C)=O)CCO3)cc1
output: -3.48

input: Repeat for the following compound: COc1ccc(NC(=O)C2CCC(CNS(=O)(=O)c3csc(C(N)=O)c3)CC2)cc1OC (stereo not drawn)
output: 1.07

input: Queued: Cc1ccccc1NC(=S)NC(=O)Cc1ccc(Cl)cc1
output: -0.97

input: Then O=C(NCCCN1CCOCC1)c1ccccc1NS(=O)(=O)c1ccc(Br)cc1 ?
output: -2.82

input: And what about the compound Cc1ccc(CNC(=O)c2ccc(CS(=O)Cc3cccc(Cl)c3)o2)cc1 (stereo not drawn) ?
output: -2.03

input: Record: COc1cccc(NC(=O)C2CCCN(c3ncnc4c3nc3n4CCCCC3)C2)c1 (stereo not drawn)
output: -0.06

input: Next compound: COc1ccc(/C=C/C(=O)NC(=S)N2CCCC(C(N)=O)C2)cc1 (stereo not drawn)
output: -3

input: Another compound to check: Cc1cc(=O)oc2c(C)c(OCC(=O)NCCN3CCOCC3)ccc12
output: 5.03

input: Now consider Cc1cccnc1CC(C)NC(=O)c1cc(COc2cncc(Cl)c2)on1 (stereo not drawn) .
output: -1.87

input: Now try Cc1cc(=O)oc2c(C)c(OCC(=O)NCCc3ccc(S(N)(=O)=O)cc3)ccc12 .
output: 10.4

input: Subsequent entry: CC(Nc1nc(N2CCOCC2)nc2ccccc12)c1ccccc1 (stereo not drawn)
output: -1.07

input: Query O=C(CN1CCN(S(=O)(=O)c2cc(Cl)ccc2Cl)CC1)c1ccc(O)c(O)c1 next
output: 2.29

input: Follow-up item: COc1ccc(C(=O)N/N=c2\oc3ccccc3cc2C(N)=O)cc1
output: -2.23

input: Let us now turn to O=C(NCCc1cccc(F)c1)C1CCCN(c2nc3ccccc3s2)C1 (stereo not drawn)
output: 0.44

input: Please do the same for CCN1CCCC1CNC(=O)c1cc2c(=O)n(C)c3ccccc3c2n1C (stereo not drawn) as well.
output: 19.9

input: Could you do the same for CCCCn1c(SCC(=O)N2CCOCC2)nc2c1c(=O)n(C)c(=O)n2C , please?
output: 1.45

input: Next record, please: O=C(Nc1ccc(S(=O)(=O)N2CCCCCC2)cc1)c1c(F)cccc1F
output: -0.68

input: How about NC(=O)c1cc2ccccc2o/c1=N/NC(=O)c1cccc(F)c1 ?
output: -3.88
